System: SK-BR-3
Test: Cytotoxicity against human SKBR3 cells after 48 hrs by SRB assay
Type: functional
Details: SK-BR-3, 48 h, read-out: LC50 (the source's name)
OBSERVATION_TYPE: CC50 (nM)

>>> endpoint_result("C/C=C1\\NC(=O)[C@H](Cc2ccccc2)NC(=O)[C@@H](C(C)C)NC(=O)[C@@H]([C@H](C)CC)NC(=O)[C@H](NC(=O)[C@H](NC(=O)[C@H](CCCNC(=O)C(F)(F)F)NC(=O)[C@H]2CCCN2C(=O)[C@H](NC(=O)[C@@H](NC(=O)[C@@H](NC(=O)[C@H](NC(=O)CC[C@@H](C)CC)C(C)C)[C@@H](C)OC(=O)C(F)(F)F)C(C)C)C(C)C)[C@H](C)CC)[C@H](C)OC(=O)[C@H](C(C)C)NC1=O")
313
>>> endpoint_result("C/C=C1\\NC(=O)[C@H](Cc2ccccc2)NC(=O)[C@@H](C(C)C)NC(=O)[C@@H]([C@H](C)CC)NC(=O)[C@H](NC(=O)[C@H](NC(=O)[C@H](CCCCN)NC(=O)[C@H]2CCCN2C(=O)[C@H](NC(=O)[C@@H](NC(=O)[C@@H](NC(=O)[C@H](NC(=O)CCCC(C)C)C(C)C)[C@@H](C)O)C(C)C)C(C)C)[C@H](C)CC)[C@H](C)OC(=O)[C@H](C(C)C)NC1=O")
351
>>> endpoint_result("C/C=C1\\NC(=O)[C@H](Cc2ccc3ccccc3c2)NC(=O)[C@@H](C(C)C)NC(=O)[C@@H]([C@H](C)CC)NC(=O)[C@H](NC(=O)[C@H](NC(=O)[C@H](CCCN)NC(=O)[C@H]2CCCN2C(=O)[C@H](NC(=O)[C@@H](NC(=O)[C@@H](NC(=O)[C@H](NC(=O)CCCC(C)C)C(C)C)[C@@H](C)O)C(C)C)C(C)C)[C@H](C)CC)[C@H](C)OC(=O)[C@H](C(C)C)NC1=O")
32.7
>>> endpoint_result("C/C=C1\\NC(=O)[C@H](Cc2ccccc2)NC(=O)[C@@H](C(C)C)NC(=O)[C@@H]([C@H](C)CC)NC(=O)[C@H](NC(=O)[C@H](NC(=O)[C@H](CCCN)NC(=O)[C@H]2CCCN2C(=O)[C@H](NC(=O)[C@@H](NC(=O)[C@@H](NC(=O)[C@H](NC(=O)Cc2cc(F)cc(F)c2)C(C)C)[C@@H](C)O)C(C)C)C(C)C)[C@H](C)CC)[C@H](C)OC(=O)[C@H](C(C)C)NC1=O")
1490
>>> endpoint_result("C/C=C1\\NC(=O)[C@H](Cc2ccccc2)N(C)C(=O)[C@@H](C(C)C)NC(=O)[C@@H]([C@H](C)CC)NC(=O)[C@H](NC(=O)[C@H](NC(=O)[C@H](CCCN)NC(=O)[C@H]2CCCN2C(=O)[C@H](NC(=O)[C@@H](NC(=O)[C@@H](NC(=O)[C@H](NC(=O)CC[C@@H](C)CC)C(C)C)[C@@H](C)O)C(C)C)C(C)C)[C@H](C)CC)[C@H](C)OC(=O)[C@H](C(C)C)NC1=O")
76.8
>>> endpoint_result("C/C=C1\\NC(=O)[C@H](Cc2ccccc2)NC(=O)[C@@H](C(C)C)NC(=O)[C@@H]([C@H](C)CC)NC(=O)[C@H](NC(=O)[C@H](NC(=O)[C@H](CCCN)NC(=O)[C@H]2CCCN2C(=O)[C@H](NC(=O)[C@@H](NC(=O)[C@@H](NC(=O)[C@H](NC(=O)CCCCCCCCCCCCCCC)C(C)C)[C@@H](C)O)C(C)C)C(C)C)[C@H](C)CC)[C@H](C)OC(=O)[C@H](C(C)C)NC1=O")
36
>>> endpoint_result("C/C=C1\\NC(=O)[C@H](Cc2ccc([N+](=O)[O-])cc2)NC(=O)[C@@H](C(C)C)NC(=O)[C@@H]([C@H](C)CC)NC(=O)[C@H](NC(=O)[C@H](NC(=O)[C@H](CCCN)NC(=O)[C@H]2CCCN2C(=O)[C@H](NC(=O)[C@@H](NC(=O)[C@@H](NC(=O)[C@H](NC(=O)CC[C@@H](C)CC)C(C)C)[C@@H](C)O)C(C)C)C(C)C)[C@H](C)CC)[C@H](C)OC(=O)[C@H](C(C)C)NC1=O")
451
>>> endpoint_result("C/C=C1\\NC(=O)[C@H](Cc2cccc(Cl)c2)NC(=O)[C@@H](C(C)C)NC(=O)[C@@H]([C@H](C)CC)NC(=O)[C@H](NC(=O)[C@H](NC(=O)[C@H](CCCN)NC(=O)[C@H]2CCCN2C(=O)[C@H](NC(=O)[C@@H](NC(=O)[C@@H](NC(=O)[C@H](NC(=O)CCCC(C)C)C(C)C)[C@@H](C)O)C(C)C)C(C)C)[C@H](C)CC)[C@H](C)OC(=O)[C@H](C(C)C)NC1=O")
48.3
>>> endpoint_result("C/C=C1\\NC(=O)[C@H](Cc2ccccc2)NC(=O)[C@@H](C(C)C)NC(=O)[C@@H]([C@H](C)CC)NC(=O)[C@H](NC(=O)[C@H](NC(=O)[C@H](CCCN)NC(=O)[C@H]2CCCN2C(=O)[C@H](NC(=O)[C@H](CCC(=O)O)NC(=O)[C@@H](NC(=O)[C@H](NC(=O)CCCC(C)C)C(C)C)[C@@H](C)O)C(C)C)[C@H](C)CC)[C@H](C)OC(=O)[C@H](C(C)C)NC1=O")
1040
>>> endpoint_result("C/C=C1\\NC(=O)[C@H](Cc2ccccc2)NC(=O)[C@@H](C(C)C)NC(=O)[C@@H]([C@H](C)CC)NC(=O)[C@H](NC(=O)[C@H](NC(=O)[C@H](CCCN)NC(=O)[C@H]2CCCN2C(=O)[C@H](NC(=O)[C@@H](NC(=O)[C@H](CC(C)C)NC(=O)[C@H](NC(=O)CCCC(C)C)C(C)C)C(C)C)C(C)C)[C@H](C)CC)[C@H](C)OC(=O)[C@H](C(C)C)NC1=O")
360
